assayed_target: T1, human CTLA4 (full-length, expressed on CHO cells) (human, UniProt P16410 36-223)
T1 construct: also called huCTLA4
T1 sequence (P16410 36-223): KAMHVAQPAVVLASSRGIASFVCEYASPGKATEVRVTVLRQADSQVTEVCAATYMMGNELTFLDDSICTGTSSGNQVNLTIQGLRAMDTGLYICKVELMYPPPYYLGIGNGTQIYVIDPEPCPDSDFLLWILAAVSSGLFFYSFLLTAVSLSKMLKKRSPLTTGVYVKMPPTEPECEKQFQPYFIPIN
assay_comment: flow cytometry, CHO cells expressing huCTLA4, PE anti-human Fc
recorded_metric: MFI at 33.3 nM (MFI)
One number for each entry, in MFI.

Examples with answers:
| binder | recorded_metric | data_value |
| --- | --- | --- |
| variant CD80 IgV-Fc H18Y/A26E/Q33L/E35D/M47L/L85Q (Fc fusion, not shown: a dimerising Fc or GST) VIHVTKEVKEVATLSCGYNVSVEELEQTRIYWLKDKKMVLTMMSGDLNIWPEYKNRTIFDITNNLSIVILALRPSDEGTYECVVQKYEKDAFKREHLAEVTLSVKAD | MFI at 33.3 nM | 2090 |
| variant CD80 IgV-Fc A26E/Q33L/E35D/M47L (Fc fusion, not shown: a dimerising Fc or GST) VIHVTKEVKEVATLSCGHNVSVEELEQTRIYWLKDKKMVLTMMSGDLNIWPEYKNRTIFDITNNLSIVILALRPSDEGTYECVVLKYEKDAFKREHLAEVTLSVKAD | MFI at 33.3 nM | 1320 |
| variant CD80 IgV-Fc Y31S/E35D/M47L/T79L/E88G (Fc fusion, not shown: a dimerising Fc or GST) VIHVTKEVKEVATLSCGHNVSVEELAQTRISWQKDKKMVLTMMSGDLNIWPEYKNRTIFDITNNLSIVILALRPSDEGLYECVVLKYGKDAFKREHLAEVTLSVKAD | MFI at 33.3 nM | 1100 |

--- query ---
Query string: Quick one: MFI at 33.3 nM for variant CD80 IgV-Fc H18Y/V20A/Q33L/E35D/M47V/Y53F (Fc fusion, not shown: a dimerising Fc or GST) VIHVTKEVKEVATLSCGYNASVEELAQTRIYWLKDKKMVLTMMSGDVNIWPEFKNRTIFDITNNLSIVILALRPSDEGTYECVVLKYEKDAFKREHLAEVTLSVKAD ?
Result string: 2880
